Experiment: RAD001 PK analysis in tumor bearing mice
Type: in vivo, NSG mice
Settings: NSG, mouse, whole blood, oral, 0.3 mg/kg; 24 hours after the final dose of RAD001; read-out: Concentration of RAD001
observable: concentration at 24 h

Bench note: what concentration at 24 h did `CO[C@H]1C[C@@H]2CC[C@@H](C)[C@@](O)(O2)C(=O)C(=O)N2CCCC[C@H]2C(=O)O[C@H]([C@H](C)C[C@@H]2CC[C@@H](OCCO)[C@H](OC)C2)CC(=O)[C@H](C)/C=C(\C)[C@@H](O)[C@@H](OC)C(=O)[C@H](C)C[C@H](C)/C=C/C=C/C=C/1C` show?
> 10 nM
